- System: Daphnia magna
- Test: Acute toxicity assay against Daphnia magna
- Run Parameters: 10 μM, 24 h exposure
Below, each of the compounds is paired with its reported V, (%) percentage of viability of Daphnia magna value.
Reported Metric: V, (%) percentage of viability of Daphnia magna

- Compound: "C=CCNC(=NN=Cc1ccccn1)[S][Cu][O]C(C)=O.C=CCNC(=NN=Cc1ccccn1)[S][Cu][O]C(C)=O.O.O.O.O [compound 4, [Cu2(L)2(CH3COO)2]·4H2O]"
  Units Of Measure: "%"
  Value Measured: 0.0
- Compound: "C=CCNC([S-])=NN=Cc1ccccn1.C=CCNC([S-])=NN=Cc1ccccn1.[Cl-].[Co+3] [compound 6, [Co(L)2]Cl]"
  Units Of Measure: "%"
  Value Measured: 92.3
- Compound: "C=CCNC(=NN=Cc1ccccn1)[S][Cu][Cl] [compound 2, [Cu(L)Cl]]"
  Units Of Measure: "%"
  Value Measured: 0.0
- Compound: "C=CCNC(=NN=Cc1ccccn1)[S][Cu][Br] [compound 3, [Cu(L)Br]]"
  Units Of Measure: "%"
  Value Measured: 0.0
- Compound: "C=CCNC(=S)NN=Cc1ccccn1.C=CCNC(=S)NN=Cc1ccccn1.O.[Cl-].[Cl-].[Ni+2] [compound 5, [Ni(HL)2]Cl2·H2O]"
  Units Of Measure: "%"
  Value Measured: 97.4
